assay: protein stability index of a GFP-peptide fusion (GPS, HEK-293T) (PSI 1-6); higher = more stable; conditions: treatment: MLN4924 1 uM, 8 h; c terminus: a fixed tail appended;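 note: 24-mer peptide tiles fused after GFP, lentivirally expressed, FACS-sorted into six equal bins by GFP/DsRed ratio, decoded by Illumina sequencing, PSI is the read-weighted mean bin number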

Macromolecule sequence: SENARLVLQIDNAKLAADDFRTKY [KRT36]
protein stability index: 4

Macromolecule sequence: YEKKFDTFIPLEPLPQIPNLPFWV [SPATS1]
protein stability index: 1.95

Macromolecule sequence: FLPSLRPPPLTSPSHGSLSHSKAP [NCF4]
protein stability index: 3.63

Macromolecule sequence: VHRQLGEANEEFALRVQQLVAKEL [AUP1]
protein stability index: 3.88

Macromolecule sequence: LMKKIGQCPMRVQKEVAGFVLNRL [CRYL1]
protein stability index: 2.53

Macromolecule sequence: APADPTAREGLAAPPRRLRSRKVS [FCHO1]
protein stability index: 5.3

Macromolecule sequence: EGGEVRFNGKGKKIRKPRTIYCSL [DLX1]
protein stability index: 3.39

Macromolecule sequence: PALCFAAAIFSLFFVPLSYLLMVT [TMEM175]
protein stability index: 3.31

Macromolecule sequence: EKQADFLDKQMSRDEHRARAMKIP [NFE2L1]
protein stability index: 4.58

Macromolecule sequence: GQSVTAVGRIIAPLLSGVAQEVSP [MFSD9]
protein stability index: 3.44

Macromolecule sequence: SEEKLALDNNASASGNATQTESGS [C10orf62]
protein stability index: 5.6

Macromolecule sequence: HFRHPKRSVSLSMRKSGAMKKGGI [BNIP3L]
protein stability index: 3.32

Macromolecule sequence: EITTLRQVLSAKERHLVEIKQKLG [TPD52L1]
protein stability index: 3.16

====

assay: protein stability index of a GFP-peptide fusion (GPS, HEK-293T) (PSI 1-6); higher = more stable; conditions: treatment: DMSO; c terminus: a fixed tail appended
Everything with protein stability index lower than 3 is Criterion not met; everything else, including exactly 3, is Criterion met.

Macromolecule sequence: LEQFVTRFLLKETLNQLQSLQNSL [NECAB1]
Category label: Criterion not met
//
Macromolecule sequence: SNLETIFRIIDSDHSGFISLDEFR [PPEF2]
Category label: Criterion not met
//
Macromolecule sequence: MTQQGAALQNYNNELVKCIEELCQ [SSNA1]
Category label: Criterion met
//
Macromolecule sequence: MAEISRIQYEMEYTEGISQRMRVP [MFF]
Category label: Criterion not met
//
Macromolecule sequence: LAGGLCVGIYATNSAEACQYVITH [ACSBG2]
Category label: Criterion not met
//
Macromolecule sequence: QPSQQQQPPPQEEPGTPSSSPDDK [KLHL14]
Category label: Criterion met
//
Macromolecule sequence: TPIQLQELLALETALGGQCVDRQE [TCAP]
Category label: Criterion met
//
Macromolecule sequence: KECVSILPRKESPSVRSSKDGKLL [TNFSF13B]
Category label: Criterion met
//
Macromolecule sequence: NAYKDLAWKHGNIHLSAPCIYSEV [PCMTD1]
Category label: Criterion not met
//
Macromolecule sequence: IVSLLLGTIHALIFAWNKWIDIKQ [STEAP1]
Category label: Criterion not met
//
Macromolecule sequence: IRQLATSGRFIVIIPRTVIDGLDL [SMG5]
Category label: Criterion not met
//
Macromolecule sequence: QAMEEDLIVGLQGMDLNLEAEALA [HDAC6]
Category label: Criterion met
//
Macromolecule sequence: EVWGNALLRPPVAAFVRAQADLLA [DNAAF3]
Category label: Criterion not met

====

assay: protein stability index of a GFP-peptide fusion (GPS, HEK-293T) (PSI 1-6); higher = more stable; details: treatment: DMSO; c terminus: a fixed tail appended
// not met strictly below 3 in protein stability index; met otherwise

Macromolecule sequence: PATGGAIPSWQIRTVKLIRYVSNW [PKD2L1]
Category label: not met
//
Macromolecule sequence: YSFGSGGGYGSSFGGVDGLLAGGE [KRT17]
Category label: not met
//
Macromolecule sequence: QRGQEPLGPGALHFDLRDDDDAEE [TCF25]
Category label: met
//
Macromolecule sequence: VMEIQKQIEKKEKKLHKIQNKAQR [TAF7L]
Category label: met
//
Macromolecule sequence: FAQADALKGTLVSTLKEVKPTVFI [ACSBG2]
Category label: not met
//
Macromolecule sequence: LPSVTDIRRPRLYLLQWLKSDKAL [PLK2]
Category label: not met
//
Macromolecule sequence: TPKLDCFLSGMEAAPRTLAAHPPL [TBX6]
Category label: met
//
Macromolecule sequence: VFDAMFNGGMATTSAEIELPDVEP [BTBD1]
Category label: met
//
Macromolecule sequence: AMEVNTSASEILYSAPPGDPLSTN [NFE2L1]
Category label: met
//
Macromolecule sequence: AALTNKHSQELTNEKEKALQAQVQ [SASS6]
Category label: met
//
Macromolecule sequence: GQSVTAVGRIIAPLLSGVAQEVSP [MFSD9]
Category label: met
//
Macromolecule sequence: RNRAITARRQHLKSVMLQIAATEL [TNNI2]
Category label: not met
//
Macromolecule sequence: QRFRQFQYREAAGPHEAFNKLWEL [ZNF449]
Category label: not met
//
Macromolecule sequence: ISQHGDPLLSNTFTETNNHWPQGP [EMID1]
Category label: met
//
Macromolecule sequence: RNGAVRRFGQTIQSFTLRGDHRSP [NET1]
Category label: met
//
Macromolecule sequence: GGRGVSTCSTRFVSGGSAGGYGGG [KRT13]
Category label: met
//
Macromolecule sequence: DDYTSAIEVQPNFEVPYYNRGLIL [TTC32]
Category label: not met
//
Macromolecule sequence: EPQSEPVRVLDMVAKLESECLKRQ [FBXO34]
Category label: met
//
Macromolecule sequence: PYTPSPSSSRPISPGLSYASHTVG [CCDC6]
Category label: met
//
Macromolecule sequence: EEVVSTLDAVQVLSGVSQLLPKSR [FCHO1]
Category label: met
//
Macromolecule sequence: LENLCENASTLRTINIKCHVHDPH [FBXO39]
Category label: met
//
Macromolecule sequence: RDQIFRYVHDPECVATTGDITVSV [FBXO3]
Category label: not met
//
Macromolecule sequence: SLKEAEFYDKQLKVLLSGATFLVT [ZFYVE21]
Category label: not met
//
Macromolecule sequence: ESKVREATNDDPWGPSGQLMGEIA [CLINT1]
Category label: met
//
Macromolecule sequence: EFFRESVNRFGTYPALASKNGKKW [ACSBG2]
Category label: not met
//
Macromolecule sequence: QSDEEQDSVKVALLETNPYLLALT [CLPTM1]
Category label: met
//
Macromolecule sequence: SYLMDHFIPSSHNDRDFLTRIFTE [PPEF2]
Category label: not met
//
Macromolecule sequence: TLGEQGLPHQSHRQRSSLAKINIV [SCNN1D]
Category label: met
//
Macromolecule sequence: AAVKLADFGLAIEVQGDQQAWFGF [CAMK2B]
Category label: not met
//
Macromolecule sequence: QLSRELSTLRNLFKQLPEPLLASS [CEBPB]
Category label: not met
//
Macromolecule sequence: PVRKLYDDCSSTIVEDPQTKCEYM [ESRRG]
Category label: met
//
Macromolecule sequence: PVLQSRTGLVYDQNMMNHCNLWDS [HDAC6]
Category label: not met
//
Macromolecule sequence: NRPSFDAILYYYQSGGRLRRPVNV [KCNA1]
Category label: not met
//
Macromolecule sequence: RALLRRFPRMLLVDRLPGLQGALD [ZSWIM9]
Category label: not met
//
Macromolecule sequence: EVHVPPSSAVSGVKEWFGLGGEQA [MIA2]
Category label: met
//
Macromolecule sequence: MAGRPHPYDGNSSDPENWDRKLHS [BTBD10]
Category label: met
//
Macromolecule sequence: DVRLLPRRLPLAFRDATSAPLRKL [DYRK1B]
Category label: met
//
Macromolecule sequence: LTISAAFNIVYIYTSELYPTVIRN [SLC22A15]
Category label: met
//
Macromolecule sequence: DDHLQQPLQNQKILKRTGQRYEHG [ZNF649]
Category label: met
//
Macromolecule sequence: FEPPAPGEGNSSQNSRNKRAVQGP [TNFSF13B]
Category label: met
//
Macromolecule sequence: APWLSLFPPEGNMEDKEMTGPQLP [ZNF263]
Category label: met
//
Macromolecule sequence: RKISVNAKDEDQWTALHFAAQNGD [RIPK4]
Category label: met
//
Macromolecule sequence: MDSGCWLFGGEFEDSVFEERPERR [C8orf76]
Category label: met
//
Macromolecule sequence: WERVHLIVAGGYDERVLENVEHYQ [ALG2]
Category label: not met
//
Macromolecule sequence: LMKKIGQCPMRVQKEVAGFVLNRL [CRYL1]
Category label: not met
//
Macromolecule sequence: TFFGTELAPVRQQELASLLRTYLA [PBXIP1]
Category label: not met
//
Macromolecule sequence: DLNNCKNNLEPILEGYISNLRKQL [KRT71]
Category label: not met
//
Macromolecule sequence: GGLAESELRPRRGRCGPQAARAAG [POMT2]
Category label: met
